Hey, just so you know, these numbers are from patent US20140056907A1.

- study.system: T1, human ASIC1 (human, UniProt P78348 1-528)
- T1 sequence: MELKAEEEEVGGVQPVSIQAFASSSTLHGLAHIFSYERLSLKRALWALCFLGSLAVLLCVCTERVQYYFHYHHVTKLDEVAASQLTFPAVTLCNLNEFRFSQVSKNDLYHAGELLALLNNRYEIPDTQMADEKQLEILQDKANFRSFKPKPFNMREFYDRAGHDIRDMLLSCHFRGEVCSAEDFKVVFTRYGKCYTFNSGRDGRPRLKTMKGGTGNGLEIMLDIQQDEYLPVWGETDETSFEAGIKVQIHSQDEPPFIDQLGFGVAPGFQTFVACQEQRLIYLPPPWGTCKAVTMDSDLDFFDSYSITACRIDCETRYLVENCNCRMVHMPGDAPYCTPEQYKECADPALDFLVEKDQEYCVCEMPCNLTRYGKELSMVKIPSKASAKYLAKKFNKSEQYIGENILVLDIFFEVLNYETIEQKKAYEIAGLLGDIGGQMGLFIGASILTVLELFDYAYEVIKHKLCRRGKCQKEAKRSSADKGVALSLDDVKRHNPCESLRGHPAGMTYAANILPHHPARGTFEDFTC
- test.details: cell-based or functional assay

- binder: "H3M6715N (antibody, V domains shown, Chimeric: human variable, mouse constant domains; H3M prefix marks the Fc, isotype not spelled out) VH: EELVLESGGGLVQPGGSLRLSCAASGFMFSTYAMSWVRQAPGKGLEWVSLISGRDGNTYYADSVKGRFTISRDNSRNTLYLQLNSLRAEDTALYYCAKDTAVVPGYGMDVWGQGTTVTVSS VL: DIQMTQSPATLSASVGDRVTITCRASQTISNWLAWYQQRPGKAPKLLIYKASSLETGVPSRFSGSGSGTEFTLTISSLQPDDFASYYCQQYNSYSWTFGQGTKVEIK"
  FLIPR Dose Curve, pH 5.5 IC50: "0.1 nM"
- binder: "H3M6713N (antibody, V domains shown, Chimeric: human variable, mouse constant domains; H3M prefix marks the Fc, isotype not spelled out) VH: EELVLESGGGLVQPGGSLRLSCAASGFMFSTYAMSWVRQAPGKGLEWVSLISGRDGSTYYADSVKGRFTISRDISRNTLYLHLNSLRAEDTAVYYCAKDTAVVPGYGLDVWGQGTTVTVSS VL: DIQMTQSPATLSASVGDRVTITCRASQTISNWLAWYQQRPGKAPKLLIYKASSLETGVPSRFSGSGSGTEFTLTISSLQPDDFASYYCQQYNSYSWTFGQGTKVEIK"
  FLIPR Dose Curve, pH 5.5 IC50: "0.2 nM"
- binder: "H1M6718N (antibody, mouse IgG1, V domains shown) VH: EVQLLESGGGLVQPGGSLRLSCAASGFTFSSFAMSWVRQAPGKGLEWVSGISGSGGGTHYADSVKGRFTISRDNSKNMVYLQMNSLRAEDTAAYYCAKEAYKWQPWGQGTLVTVSS VL: DIQMTQSPSTLSASVGDRVIITCRASQRISSWLAWYQQKPGKAPNLLIYKASILESGVPSRFSGSGSGTEFTLTISSLQPDDFATYYCQQYNSYSYTFGQGTKLEIK"
  FLIPR Dose Curve, pH 5.5 IC50: "0.6 nM"
- binder: "H3M6760N (antibody, V domains shown, Chimeric: human variable, mouse constant domains; H3M prefix marks the Fc, isotype not spelled out) VH: EDRVLESGGGLVQPGGSLRLSCAASGFMFSSYAMSWVRQAPGKGLEWVSLISGRDGNTYYADSVKGRFTISRDNSRNTLYLQLNSLRAEDTAVYYCAKDTAVVPGYGMDVWGQGTTVTVSS VL: DIQMTQSPSTLSASVGDRVTITCRASQSISNWLAWYQQRPGKAPKLLIYKASSLESGVPSRFSGSGSGTEFTLTISSLQPDDFASYYCQQYNSYSWTFGQGTKVEIK"
  FLIPR Dose Curve, pH 5.5 IC50: "0.9 nM"
